Where do the numbers come from? From the supplement of paper PMC6555819.

System: RARg:RXRa (NR concentration 270 nM, RXRa partner concentration 90 nM)
Assay: PBM binding z-score (relative to random genomic background probes); higher = stronger binding; sequences stand for … in GC…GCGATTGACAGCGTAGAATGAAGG
Field: class. Source value: PBM binding z-score. Ranges: bucket 1: < 0.6; bucket 2: ≥ 0.6 and < 2; bucket 3: ≥ 2

Here are 5 sequences together with their reported answers.
{"item-sequence": "ATCTCTAGGTATGACTCAGTTCAGTGAAGAACGC", "assigned-label": "bucket 1"}
{"item-sequence": "CCCACTGGGCCATCAGGTCATTGATATCAACGTT", "assigned-label": "bucket 3"}
{"item-sequence": "GCTGCTAGGTCAGGTTCGTCAGCTAACGGGTACG", "assigned-label": "bucket 3"}
{"item-sequence": "ATCGAAAGTTCGACGAGGTGAGTATACACCGTTT", "assigned-label": "bucket 2"}
{"item-sequence": "TCTAGTTGGCCACGGAGGTCACACACGACGGGTA", "assigned-label": "bucket 3"}

Would you kindly look at the next entry?
Class label required: TTACCAAGGTGAAAGCTCGTTGATGCACGCCTTG
bucket 1

###

Test system: PPARa:RXRa (NR concentration 270 nM, RXRa partner concentration 90 nM)
Test: PBM binding z-score (relative to random genomic background probes); higher = stronger binding; sequences stand for … in GC…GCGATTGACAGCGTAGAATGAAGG
Quick rule: PBM binding z-score of at least 3 means 1 (yes), below that means 0 (no).

Here are 5 sequences together with their reported answers.
{"item-sequence": "GCTAGCAGGCCATTTGGGTCACACAATGACGGGC", "assigned-label": "0 (no)"}
{"item-sequence": "ATATGTAGGTTACATCCGGATCATTCAGGCTATG", "assigned-label": "1 (yes)"}
{"item-sequence": "TCATATAGGTAAATGCTAGGTGCAAGTCCGATCT", "assigned-label": "0 (no)"}
{"item-sequence": "CTAGAAAGGTCGGTTGAGGTGAGTATACGGATAA", "assigned-label": "0 (no)"}
{"item-sequence": "TCATATAGGTAATACAGGTGAAAGTCGGCATCTA", "assigned-label": "0 (no)"}

Would you kindly look at the next entry?
Can ATATGTAGATTAGCTGGGGTCATTCAGACTAGGC be said to have PBM binding z-score at or above 3?
1 (yes)

###

Tested on: RARg:RXRa (NR concentration 270 nM, RXRa partner concentration 90 nM)
Experiment: PBM binding z-score (relative to random genomic background probes); higher = stronger binding; sequences stand for … in GC…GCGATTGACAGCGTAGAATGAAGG
Hi there, I'd appreciate the recorded PBM binding z-score for every entry that follows.
Answers are plain numbers.

{"item-sequence": "ATCGAAAGGTCGAGGTGAGTATTGAGAAAGGGAA", "test-target": "RARg:RXRa (NR concentration 270 nM, RXRa partner concentration 90 nM)", "PBM binding z-score": 4.2}
{"item-sequence": "CGAACTAGGTCAGGACAGGACAGTGAAGGATGAT", "test-target": "RARg:RXRa (NR concentration 270 nM, RXRa partner concentration 90 nM)", "PBM binding z-score": 2.87}
{"item-sequence": "ATCTCTAGGCAAAGATAGTTCAGTGAATGCAAAT", "test-target": "RARg:RXRa (NR concentration 270 nM, RXRa partner concentration 90 nM)", "PBM binding z-score": 0.288}

# map each sequence to its PBM binding z-score
1. ACTATTAGTTGACTAAGGGCAACCGATACGACGC
2. GCGACTGGGTCAAAGCAGGTTACCATAAGGTTGG
3. TTACCAAGGTGAGCTGAGGTCGTTGTTCCAACTC
4. GCGGCTAGGTCAGGTTGGTCAGCTAACGGGTACG

[0.953, 3.65, 1.31, 2.47]
